Biological target: human metabotropic glutamate 7 receptor (hmGlu7) (Homo sapiens)
Construct: expressed in transfected cells
Sequence (Q14831 35-922 isoform Q14831-2): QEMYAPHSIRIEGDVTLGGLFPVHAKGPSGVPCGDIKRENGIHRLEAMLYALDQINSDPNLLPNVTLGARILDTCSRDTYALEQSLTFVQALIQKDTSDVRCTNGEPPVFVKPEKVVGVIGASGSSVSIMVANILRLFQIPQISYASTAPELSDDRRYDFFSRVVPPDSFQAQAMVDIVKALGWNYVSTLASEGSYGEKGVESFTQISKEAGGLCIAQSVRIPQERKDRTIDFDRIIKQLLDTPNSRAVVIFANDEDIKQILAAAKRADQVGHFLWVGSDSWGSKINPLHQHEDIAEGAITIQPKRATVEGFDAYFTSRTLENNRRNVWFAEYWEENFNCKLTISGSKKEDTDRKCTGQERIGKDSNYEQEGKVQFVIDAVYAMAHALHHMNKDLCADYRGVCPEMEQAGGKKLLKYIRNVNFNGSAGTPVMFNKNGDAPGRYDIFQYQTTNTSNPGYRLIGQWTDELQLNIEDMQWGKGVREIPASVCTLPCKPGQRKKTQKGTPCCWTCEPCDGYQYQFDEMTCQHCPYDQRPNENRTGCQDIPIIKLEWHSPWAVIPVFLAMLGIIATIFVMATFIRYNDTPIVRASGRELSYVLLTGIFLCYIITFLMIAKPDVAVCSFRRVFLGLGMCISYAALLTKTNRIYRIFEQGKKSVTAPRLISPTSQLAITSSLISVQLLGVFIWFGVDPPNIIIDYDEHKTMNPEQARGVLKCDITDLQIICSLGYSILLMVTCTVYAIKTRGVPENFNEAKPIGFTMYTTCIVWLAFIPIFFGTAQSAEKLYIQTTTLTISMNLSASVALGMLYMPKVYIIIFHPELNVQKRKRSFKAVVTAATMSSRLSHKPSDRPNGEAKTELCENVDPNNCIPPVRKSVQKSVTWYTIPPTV
Assay: mGlu7 assay on HEK-expressing human mGlu7: fluorescent cell based Ca2+ mobilization assay (FLIPR), inhibition of EC80 L-AP4 response
Conditions: HEK-293 cells expressing hmGlu7; EC80 L-AP4 stimulation; mean of at least three independent experiments in duplicate; read-out: Ca2+ Flux (mean IC50)
Experimental: mGlu7 Assay on HEK-Expressing Human mGlu7 […] After 10 s of basal fluorescence recording, various concentrations of the compounds of the invention were added to the cells. Changes in fluorescence levels were first monitored for 180 s in order to detect any agonist activity of the compounds. […]
pIC50: −log10 of the molar value.
Measurement Kind: pIC50

**Q:** Reported pIC50 for human metabotropic glutamate 7 receptor (hmGlu7) (Homo sapiens), given COc1ccccc1-n1ncc2c(C)n(-c3ccc(C)cc3)c(C)c2c1=O ?
**A:** 6.00 to 7.00

**Q:** Form entry - test system: human metabotropic glutamate 7 receptor (hmGlu7) (Homo sapiens); read-out: pIC50; compound: Cc1c2cnn(-c3ccccc3)c(=O)c2c(C)n1-c1ccccc1Cl
**A:** 6.00 to 7.00

**Q:** Can you look up pIC50 on human metabotropic glutamate 7 receptor (hmGlu7) (Homo sapiens) for COc1cccc(-n2c(C)c3cnn(-c4ncc(C)cn4)c(=O)c3c2C)c1Cl ?
**A:** 6.00 to 7.00

**Q:** Under human metabotropic glutamate 7 receptor (hmGlu7) (Homo sapiens): pIC50 value of Cc1cccc(-n2c(C)c3cnn(-c4cccnc4)c(=O)c3c2C)c1 ?
**A:** 6.00 to 7.00

**Q:** GET /values?readout=pIC50&system=human metabotropic glutamate 7 receptor (hmGlu7) (Homo sapiens)&item= COc1ccc(-n2ncc3c(C)n(-c4cccc(N5CCOCC5)c4)c(C)c3c2=O)cc1
**A:** 6.00 to 7.00

**Q:** Lab note: need pIC50 for Cc1c(OC2CC2)cccc1-n1c(C)c2cnn(-c3ccc(N4CCOCC4)cc3)c(=O)c2c1C on human metabotropic glutamate 7 receptor (hmGlu7) (Homo sapiens), anyone have it?
**A:** 5.00 to 6.00

**Q:** Return pIC50 measured with human metabotropic glutamate 7 receptor (hmGlu7) (Homo sapiens) given this compound: COc1cccc(-n2c(C)c3cnn(-c4ccc5ccccc5n4)c(=O)c3c2C)c1
**A:** 6.00 to 7.00

**Q:** Kindly state the measured pIC50 obtained for COc1ccc(-n2c(C)c3cnn(-c4ccc(OC)cc4)c(=O)c3c2C)cc1 with human metabotropic glutamate 7 receptor (hmGlu7) (Homo sapiens).
**A:** 6.00 to 7.00

**Q:** # query: pIC50 | item Cc1c2cnn(-c3ccccn3)c(=O)c2c(C)n1-c1ccc2ccn(C)c2c1 | system: human metabotropic glutamate 7 receptor (hmGlu7) (Homo sapiens)
**A:** 5.00 to 6.00

**Q:** Recorded pIC50 for COc1cccc(-n2c(C)c3cnn(-c4cccc(C#N)c4)c(=O)c3c2C)c1 with human metabotropic glutamate 7 receptor (hmGlu7) (Homo sapiens), please?
**A:** 6.00 to 7.00

**Q:** Look up pIC50 with human metabotropic glutamate 7 receptor (hmGlu7) (Homo sapiens) for this compound: COc1cccc(-n2c(C)c3cnn(-c4ccccn4)c(=O)c3c2C)c1F
**A:** 6.00 to 7.00

**Q:** Query for human metabotropic glutamate 7 receptor (hmGlu7) (Homo sapiens): what pIC50 does the record show for Cc1cccc(-n2ncc3c(C)n(-c4ccccc4)c(C)c3c2=O)c1 ?
**A:** > 7.00

**Q:** Reported pIC50 for human metabotropic glutamate 7 receptor (hmGlu7) (Homo sapiens), given Cc1c2cnn(-c3ccc(S(=O)(=O)N(C)C)cc3)c(=O)c2c(C)n1-c1ccccc1 ?
**A:** 6.00 to 7.00

**Q:** # returns recorded pIC50 (system: human metabotropic glutamate 7 receptor (hmGlu7) (Homo sapiens)) for COc1cc(-n2c(C)c3cnn(-c4ccccn4)c(=O)c3c2C)ccn1
**A:** 5.00 to 6.00

**Q:** Param readout = pIC50; param system = human metabotropic glutamate 7 receptor (hmGlu7) (Homo sapiens); param query = Cc1c2cnn(-c3ccccn3)c(=O)c2c(C)n1-c1cccc(Oc2ccccc2)c1 ; response: value
**A:** 5.00 to 6.00

**Q:** Can you look up pIC50 on human metabotropic glutamate 7 receptor (hmGlu7) (Homo sapiens) for COc1cccc(-n2c(C)c3cnn(-c4ccc(C(C)(C)O)cc4)c(=O)c3c2C)c1 ?
**A:** > 7.00

**Q:** Record Cc1c2cnn(-c3ncccc3F)c(=O)c2c(C)n1-c1cccc(N2CCC2)c1 : what is its pIC50 with human metabotropic glutamate 7 receptor (hmGlu7) (Homo sapiens)?
**A:** > 7.00

**Q:** Record lookup: for human metabotropic glutamate 7 receptor (hmGlu7) (Homo sapiens), what pIC50 belongs to Cc1c(OC(F)F)cccc1-n1c(C)c2cnn(-c3ccccn3)c(=O)c2c1C ?
**A:** 6.00 to 7.00

**Q:** GET /values?readout=pIC50&system=human metabotropic glutamate 7 receptor (hmGlu7) (Homo sapiens)&item= Cc1c2cnn(-c3ccccc3F)c(=O)c2c(C)n1-c1ccccc1
**A:** 6.00 to 7.00

* * *

Biological target: human metabotropic glutamate 7 receptor (hmGlu7) (Homo sapiens)
Test: mGlu7 assay on HEK-expressing human mGlu7: fluorescent cell based Ca2+ mobilization assay (FLIPR), inhibition of EC80 L-AP4 response
Conditions: HEK-293 cells expressing hmGlu7; EC80 L-AP4 stimulation; mean of at least three independent experiments in duplicate; read-out: Ca2+ Flux (mean IC50)
Measurement Kind: IC50

**Q:** Identify the measured IC50 of COc1ccccc1-n1ncc2c(C)n(-c3ccccc3)c(C)c2c1=O [1-5] for human metabotropic glutamate 7 receptor (hmGlu7) (Homo sapiens).
**A:** 1000 to 10000 nM

**Q:** Give recorded IC50 with human metabotropic glutamate 7 receptor (hmGlu7) (Homo sapiens) for the following compound: COc1ccccc1-n1ncc2c(C)n(-c3cccc(N4CCC4)c3)c(C)c2c1=O [1-176]
**A:** 100 to 1000 nM

**Q:** Please tell me: IC50 of COc1ccc(-n2c(C)c3cnn(-c4ccccn4)c(=O)c3c2C)cc1 [1-47] , system human metabotropic glutamate 7 receptor (hmGlu7) (Homo sapiens)?
**A:** 100 to 1000 nM

**Q:** Lab note: need IC50 for Cc1c2cnn(-c3ccc(C#N)cc3)c(=O)c2c(C)n1-c1ccccc1 [1-17] on human metabotropic glutamate 7 receptor (hmGlu7) (Homo sapiens), anyone have it?
**A:** 100 to 1000 nM

**Q:** API: value(readout= IC50, system= human metabotropic glutamate 7 receptor (hmGlu7) (Homo sapiens), query= Cc1c2cnn(-c3ccccc3)c(=O)c2c(C)n1-c1ccccn1 [1-25] )
**A:** 1000 to 10000 nM

**Q:** Fill in the recorded IC50 for this compound, with human metabotropic glutamate 7 receptor (hmGlu7) (Homo sapiens) as test system: Cc1c2cnn(-c3ccc(N4CCOCC4)cc3)c(=O)c2c(C)n1-c1cccc(N2CCC2)c1 [1-219]
**A:** 100 to 1000 nM

**Q:** Reported IC50 for human metabotropic glutamate 7 receptor (hmGlu7) (Homo sapiens), given Cc1c2cnn(-c3cccnc3)c(=O)c2c(C)n1-c1ccccc1 [1-9] ?
**A:** 100 to 1000 nM

**Q:** Lookup: IC50 / human metabotropic glutamate 7 receptor (hmGlu7) (Homo sapiens) / Cc1c2cnn(-c3ncc(F)cn3)c(=O)c2c(C)n1-c1cc(N2CCC2)ccc1F [1-218]
**A:** 100 to 1000 nM

**Q:** I'm curious: which IC50 was measured for COc1cccc(-n2c(C)c3cnn(-c4ccc(CN)cc4)c(=O)c3c2C)c1 [1-88] tested on human metabotropic glutamate 7 receptor (hmGlu7) (Homo sapiens)?
**A:** 100 to 1000 nM

* * *

Kindly supply the reported pIC50 values for the records listed here.
Target: human metabotropic glutamate 7 receptor (hmGlu7) (Homo sapiens)
Test: mGlu7 assay on HEK-expressing human mGlu7: fluorescent cell based Ca2+ mobilization assay (FLIPR), inhibition of EC80 L-AP4 response
Conditions: HEK-293 cells expressing hmGlu7; EC80 L-AP4 stimulation; mean of at least three independent experiments in duplicate; read-out: Ca2+ Flux (mean IC50)
pIC50: −log10 of the molar value.

**Q:** Suppose we examine the compound Cc1c2cnn(-c3ncccc3F)c(=O)c2c(C)n1-c1cc(N2CCC2)ccc1F ; what pIC50 value has been reported?
**A:** > 7.00

**Q:** Tell me the measured pIC50 of Cc1c(OC2CC2)cccc1-n1c(C)c2cnn(-c3ncccc3F)c(=O)c2c1C , please.
**A:** > 7.00

**Q:** Data request, read-out pIC50, for Cc1c2cnn(-c3cccnc3)c(=O)c2c(C)n1-c1cccc(N2CCOCC2)c1
**A:** 5.00 to 6.00

**Q:** Reported pIC50 for COC(=O)c1ccc(-n2ncc3c(C)n(-c4cccc(OC)c4)c(C)c3c2=O)cc1OC : what is it?
**A:** 6.00 to 7.00

**Q:** Dear colleague, I am looking for the recorded pIC50 of the following compound: Cc1c2cnn(-c3ccccn3)c(=O)c2c(C)n1-c1cccc(N2CCC(C)(C)C2)c1
**A:** 6.00 to 7.00

**Q:** Can you share its pIC50? I mean this compound: COc1cccc(-n2c(C)c3cnn(-c4ccc(CCCO)cc4)c(=O)c3c2C)c1
**A:** > 7.00

**Q:** Request the reported pIC50 associated with O=c1c2cn(-c3cccc(N4CCC4)c3)cc2cnn1-c1ccccn1
**A:** 5.00 to 6.00

**Q:** Name the reported pIC50 value associated with the compound Cc1c2cnn(-c3ccc(C(C)(C)O)cc3)c(=O)c2c(C)n1-c1cccc(N2CCC2)c1
**A:** > 7.00

**Q:** Value lookup for pIC50; key = Cc1ccc(-n2ncc3c(C)n(-c4ccccc4)c(C)c3c2=O)cn1
**A:** 6.00 to 7.00

**Q:** So what's the measured pIC50 for this one? Cc1c2cnn(-c3ccc(CCF)cc3)c(=O)c2c(C)n1-c1cccc(N2CCC2)c1
**A:** > 7.00

**Q:** Fill blank: measured pIC50 of the compound Cc1c2cnn(-c3ccccn3)c(=O)c2c(C)n1-c1cccc(N2CCOCC2)c1 is ____.
**A:** 5.00 to 6.00

**Q:** Field request: pIC50 | item: Cc1c2cnn(-c3ccccn3)c(=O)c2c(C)n1-c1cccc(N2CCCC2)c1
**A:** > 7.00

**Q:** I have this compound here, CCOc1cccc(-n2ncc3c(C)n(-c4cccc(OC)c4)c(C)c3c2=O)c1 , and I need its recorded pIC50.
**A:** > 7.00

**Q:** So what does the record say about pIC50 for COCc1ccc(-n2ncc3c(C)n(-c4ccccc4)c(C)c3c2=O)cc1 ?
**A:** > 7.00

**Q:** Given the entry COc1cccc(-n2c(C)c3cnn(-c4ccc(C(F)(F)F)cn4)c(=O)c3c2C)c1 , report its measured pIC50.
**A:** 6.00 to 7.00

**Q:** So what's the measured pIC50 for this one? Cc1ccc(-n2ncc3c(C)n(-c4cccc(N5CCC5)c4)c(C)c3c2=O)cn1
**A:** > 7.00

**Q:** I'd like to know its pIC50. The compound in question is CCc1c2cnn(-c3ccccn3)c(=O)c2c(C)n1-c1cccc(OC)c1
**A:** 5.00 to 6.00

**Q:** What value of pIC50 has been reported for the following compound? Cc1ccc(-n2c(C)c3cnn(-c4cccc(C)c4)c(=O)c3c2C)cc1
**A:** 6.00 to 7.00
